Where a name gives a salt, the structure may show the parent alone.
melting point listing for selected compounds.
Hi! Could you send only the number? It should be in °C, unit omitted.

Examples from the recorded data:
Compound: CNC(=O)CN(C)C(c1ccccc1)c1cc2cc(Br)ccc2nc1OC (centres unmarked) [Compound 3]
Uom: °C
melting point: 190
--
Compound: COc1nc2ccc(Br)cc2cc1C(c1ccccc1)N(CCN(C)C)c1ccccc1 (centres unmarked) [Compound 18]
Uom: °C
melting point: 120

Measured melting point of CCOC(=O)CN(Cc1cccc2ncccc12)C(c1ccccc1)c1cc2cc(Br)ccc2nc1OC (centres unmarked) [Compound 145] : 96

# melting point of Cc1ccc2nc(-c3ccccc3)c(C(c3ccccc3)N(CC(=O)N(C)C(C)C)Cc3ccccc3)cc2c1 (centres unmarked) [Compound 41] = 126

compound COc1cccc(CN(CCN(C)C)C(c2ccccc2)c2cc3cc(Br)ccc3nc2OC)c1 (centres unmarked) (as salt: oxalate) [Compound 20] , melting point observed: 142

Quick note, melting point for CN(C)C(=O)CN(Cc1ccccc1)C(c1ccccc1)c1cc2cc(Br)ccc2nc1-c1ccccc1 (centres unmarked) [Compound 53] landed at 110

Reported melting point for Cc1ccc2nc(-c3ccccc3)c(C(c3ccccc3)N(C)CCN(C)C)cc2c1 (centres unmarked) (as salt: oxalate) [Compound 37] was 142

Given item Cc1ccc2nc(-c3ccccc3)c(C(c3ccccc3)N(CC(=O)N3CCSCC3)Cc3ccccc3)cc2c1 (centres unmarked) [Compound 70] , the value recorded as its melting point is 144

====

Entries and their IC90 values follow.
# Test system: LMO 49594
# Assay text: Microtitre plate assay, IC90 determination, LMO 49594
# Assay type: cell-based, Listeria monocytogenes
# Condition details: Listeria monocytogenes; 90% inhibitory concentration for bacterial growth; strain LMO 49594; 24 hours at 37° C.; read-out: IC90 (μg/ml) LMO 49594
Give just the numeric value; µg/mL need not be written.

Compound: Cc1ccc2nc(-c3ccccc3)c(C(c3ccccc3)N(CC(=O)N3CCSCC3)Cc3ccccc3)cc2c1 (stereo not drawn)
IC90, µg/mL: 14
//
Compound: COc1cccc(CN(CCN(C)C)C(c2ccccc2)c2cc3cc(Br)ccc3nc2OC)c1 (stereo not drawn)
IC90, µg/mL: 15.7
//
Compound: COc1nc2ccc(Br)cc2cc1C(c1ccccc1F)N(CCN(C)C)Cc1ccccc1 (stereo not drawn)
IC90, µg/mL: 8.3
//
Compound: Cc1ccc2nc(-c3ccccc3)c(C(c3ccccc3)N(CC(=O)N3CCN(C)CC3)Cc3ccccc3)cc2c1 (stereo not drawn)
IC90, µg/mL: 11.1
//
Compound: CN(C)CCN(Cc1ccccc1)C(c1ccccc1)c1cc2cc(Br)ccc2nc1-c1ccccc1 (stereo not drawn)
IC90, µg/mL: 13.8

// IC90 value for COc1nc2ccc(Br)cc2cc1C(c1ccccc1)N(CC(=O)N1CCN(C)CC1)Cc1cccc2ncccc12 (stereo not drawn) : 49.6

Cited source for all entries: patent US7915292B2
